Assay: RAM pathway blockade in budding yeast – dse1pr::URA3 reporter, 5-FOA selection, pilot screen (AID 869);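 further: 0% = DMSO wells with no growth and 100% = 10 µM 1-NA-PP1 with full growth; RAM network block rescues cells from 5-FOA so hits raise OD615 growth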
Settings: S. cerevisiae dse1pr::URA3 5-FOA growth, OD615, 2 d; at 10 µM; stronger effect = higher value; strain carries analog-sensitive mutant Cbk1 kinase
Active and inactive are the calls of the source.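 How the source made its calls: active means inhibition over a set limit, the all-compound mean plus 3 SD, in both replicate runs; inconclusive means over that limit in just one replicate run; inactive means at or under that limit in both runs.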
measurementType: inhibition

INSERT INTO results (compound, result) VALUES
  ('O=C(Nc1ccc(N2C(=O)C3C4C=CC(C4)C3C2=O)cc1)Nc1nncs1 (stereo not given)', '0.53% (inactive)');

# compound CCOC(=O)c1ccc(NC(=O)Cn2cc3c(n2)CCC(C)C3)cc1 (stereo not given) ; its inhibition = 1.92% (inactive)

inhibition reported for this compound Cc1cc(Oc2ccccc2)nc2ccc(O)cc12 : 1.14% (inactive)

What the record says about COc1ccc(NC(=O)c2c(-c3ccccc3)noc2C)c(OC)c1 : inhibition is 0.895% (inactive)

inhibition reported for this compound CC(C)(C)NC(=O)CC(CC(=O)O)c1ccccc1 (stereo not given) : 2.61% (inactive)

For record Cc1ccc(C2CC(c3ccc(C)cc3)n3nc(N)nc3N2)cc1 (stereo not given) the listed inhibition is 1.34% (inactive)

Form: compound = O=C(c1cnccn1)N(c1ccccc1)C1(C(=O)NC2CCCC2)CCCCC1 ; inhibition = 1.56% (inactive)

Memo: O=C1NC(=O)C(CC(=O)N(Cc2ccco2)C2(C(=O)NC3CCCCC3)CCCCC2)N1 (stereo not given) , reported inhibition: -0.005% (inactive)

Recorded inhibition (compound CC1CCN(C(=O)CSCC(=O)Nc2nc(-c3cccs3)cs2)CC1 ): 0.24% (inactive)

Notebook: CC(Sc1nc(-c2ccccc2)cc(C(F)(F)F)n1)C(=O)N1CCCC1 (stereo not given) , inhibition read as 0.895% (inactive)

The recorded inhibition for C=CCOc1ccc(/C=C/C(C)=N\O)cc1 is 1.11% (inactive)

inhibition in this record for CCn1cc(C(=O)NCC2CCCO2)c(=O)c2cc(S(=O)(=O)N(C)C)ccc21 (stereo not given) : 2.33% (inactive)

The reported inhibition of the compound CCOCCn1c(SCc2ccc(F)cc2)nc2c1c(=O)[nH]c(=O)n2C was -0.925% (inactive)

The compound Cc1nc2ccccc2c2oc(C(=O)NCCN3CCCCC3C)cc12 (stereo not given) showed inhibition equal to 1.77% (inactive)

Documented inhibition of Cc1nn(C(=O)c2ccc3c(c2)OCO3)c(N)c1-c1ccccc1 : 0.585% (inactive)

meta.source: PubChem BioAssay
